- system_under_test: Mushroom tyrosinase (Agaricus bisporus, UniProt O42713+Q00024+C7FF04+C7FF05)
- experimental_protocol: Inhibition of mushroom monophenolase
observation_type: IC50 (µM)
Field: numeric (µM). Do not append units.

Req: Output IC50 of COc1ccc(C(=O)/C=C/c2cc(=O)c(O)c[nH]2)cc1OC
Resp: 2.75

Req: Identify measured IC50 associated with Cn1cc(O)c(=O)cc1/C=C/C(=O)c1ccc(F)cc1
Resp: 3.07

Req: Return value of IC50 for input CCCCCCCCn1cc(O)c(=O)cc1COC(=O)[C@H](N)Cc1ccccc1 , no commentary.
Resp: 12.6

Req: Consider the compound CCCCCCCCO/N=C/c1cc(=O)c(O)c[nH]1 and give its recorded IC50.
Resp: 1.6

Req: Give me measured IC50, please, for this compound: CCCCCCO/N=C/c1cc(=O)c(O)c[nH]1
Resp: 2.04

###

Hi there, I'd appreciate the recorded inhibition for every entry that follows.
- system_under_test: Macrophage metalloelastase (Homo sapiens)
- Sequence (P39900 106-470 limits assumed): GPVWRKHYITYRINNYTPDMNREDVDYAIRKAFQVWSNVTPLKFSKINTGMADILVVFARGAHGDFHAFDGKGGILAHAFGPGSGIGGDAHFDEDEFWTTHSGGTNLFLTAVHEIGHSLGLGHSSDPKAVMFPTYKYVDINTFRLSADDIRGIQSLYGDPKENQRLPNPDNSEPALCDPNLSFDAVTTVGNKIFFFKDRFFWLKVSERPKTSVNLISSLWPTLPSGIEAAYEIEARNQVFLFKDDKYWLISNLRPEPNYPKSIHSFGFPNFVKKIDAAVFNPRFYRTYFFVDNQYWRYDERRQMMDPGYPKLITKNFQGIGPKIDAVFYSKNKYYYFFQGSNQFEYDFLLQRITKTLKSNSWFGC
- experimental_protocol: Inhibition of human MMP-12 relative to control
- Set-up: concentration or dose not given beside the values
- measurement_setup: concentration not given here
Give the number first and the unit second.

Req: # return recorded inhibition for input On1ccc2ccccc2c1=S
Resp: 93%

Req: Please list inhibition recorded for the compound O=C(O)c1c[nH]c2ccccc2c1=S
Resp: 93%

Req: Provide inhibition value for the following compound: CS(=O)(=O)Cc1cccc(=S)n1O
Resp: 93%

Req: Tell us which inhibition value is on record for Oc1coccc1=S
Resp: 93%

Req: Output measured inhibition for this item: Oc1coc2ccccc2c1=S
Resp: 93%

###

- system_under_test: Stromelysin-1 (Homo sapiens)
- Sequence (P08254 whole entry): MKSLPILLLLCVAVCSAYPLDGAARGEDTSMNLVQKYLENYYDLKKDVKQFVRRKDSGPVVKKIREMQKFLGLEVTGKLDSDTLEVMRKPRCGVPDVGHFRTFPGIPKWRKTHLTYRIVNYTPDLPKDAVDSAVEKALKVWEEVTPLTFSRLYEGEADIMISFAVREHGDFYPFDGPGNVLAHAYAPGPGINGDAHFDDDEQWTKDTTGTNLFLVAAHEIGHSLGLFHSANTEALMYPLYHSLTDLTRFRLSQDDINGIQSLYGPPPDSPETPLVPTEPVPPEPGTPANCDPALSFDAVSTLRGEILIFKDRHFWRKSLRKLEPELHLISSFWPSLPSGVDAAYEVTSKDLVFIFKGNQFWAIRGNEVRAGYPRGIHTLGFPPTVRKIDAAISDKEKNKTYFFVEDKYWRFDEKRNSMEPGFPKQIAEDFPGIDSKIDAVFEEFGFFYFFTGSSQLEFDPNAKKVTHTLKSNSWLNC
- experimental_protocol: Inhibition of MMP-3 (unknown origin) by Colorimetric assay
observation_type: pIC50
The scale used: pIC50 is minus the common logarithm of the concentration in molar units.

Req: Please report pIC50 for the following molecule: [O-][n+]1ccccc1S
Resp: 4.70

###

- experimental_protocol: Inhibition of Pseudomonas aeruginosa Metallo-beta-lactamase VIM-2
Please provide measured pKi for the entries that follow.
On this scale, pKi is minus log10 of a concentration expressed in M (mol/L).

Req: Given the molecule O=C(O)c1cccc(=S)n1O , write its reported pKi.
Resp: 7.89

Req: Query pKi for [O-][n+]1ccccc1S
Resp: 6.66

###

- system_under_test: Stromelysin-1 (Homo sapiens)
- experimental_protocol: Inhibition of MMP-3 (unknown origin)
observation_type: IC50 (µM)
Your answer is read as µM, so omit the unit and give the number.

Req: Identify measured IC50 corresponding to Cc1c(O)c(=S)ccn1Cc1ccc(-c2ccccc2)cc1
Resp: 4

###

- experimental_protocol: Therapeutic index, ratio of CC50 for HEK293 cells to EC50 for Escherichia coli expressing VIM-2
- Assay type: toxicity
- measurement_setup: human, read-out: Ratio CC50/EC50
observation_type: selectivity ratio
Reply briefly: the number, and no unit.

Req: Output measured selectivity ratio for this item: O=C(O)c1cccc(=S)n1O
Resp: 8800

###

- system_under_test: Mushroom tyrosinase (Agaricus bisporus, UniProt O42713+Q00024+C7FF04+C7FF05)
- experimental_protocol: Inhibition of mushroom diphenolase
observation_type: IC50 (µM)
Lab book: enter the figure in µM, no units written.

Req: # return recorded IC50 for input CCCCCCCCn1cc(O)c(=O)cc1COC(=O)[C@H](N)Cc1ccccc1
Resp: 4.01

Req: Indicate its recorded IC50; the compound in question is COc1ccc(C(=O)/C=C/c2cc(=O)c(O)c[nH]2)cc1OC
Resp: 19.3

Req: Kindly indicate its recorded IC50. Item: CCCCCCO/N=C/c1cc(=O)c(O)c[nH]1
Resp: 13.89

Req: Return value of IC50 for input CCCCCCCCO/N=C/c1cc(=O)c(O)c[nH]1 , no commentary.
Resp: 7.99

Req: Name the recorded IC50 of the item Cn1cc(O)c(=O)cc1/C=C/C(=O)c1ccc(F)cc1 in your answer.
Resp: 17.05
